target: human Protein Kinase C, zeta (PKCz), PRKCZ (gene 5590) (UniProt Q05513); test: NVS_ENZ_hPKCz: NovaScreen (NVS) Enzymatic Assay for human Protein Kinase C, zeta (PKCz)
Sequence (Q05513 whole entry, looked up): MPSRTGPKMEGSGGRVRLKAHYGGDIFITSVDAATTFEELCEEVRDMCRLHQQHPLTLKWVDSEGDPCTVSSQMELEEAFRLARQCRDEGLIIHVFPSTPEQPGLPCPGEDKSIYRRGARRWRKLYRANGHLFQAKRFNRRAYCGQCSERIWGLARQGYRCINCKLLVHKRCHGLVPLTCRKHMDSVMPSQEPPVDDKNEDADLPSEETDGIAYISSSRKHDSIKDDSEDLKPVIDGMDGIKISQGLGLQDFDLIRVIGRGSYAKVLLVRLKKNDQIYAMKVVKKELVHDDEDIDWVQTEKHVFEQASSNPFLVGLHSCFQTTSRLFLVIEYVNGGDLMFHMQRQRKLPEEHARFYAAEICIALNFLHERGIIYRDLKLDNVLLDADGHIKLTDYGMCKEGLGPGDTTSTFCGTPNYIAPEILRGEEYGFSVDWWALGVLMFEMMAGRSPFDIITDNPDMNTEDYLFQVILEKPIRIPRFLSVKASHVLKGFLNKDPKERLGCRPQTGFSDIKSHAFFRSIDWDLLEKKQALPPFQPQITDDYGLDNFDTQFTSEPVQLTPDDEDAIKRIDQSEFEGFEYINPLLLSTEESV
Results filed as inconclusive are left out. Activity calls are given as the source filed them. Rule for the calls: active = hit-call score of the fitted dose curve at least 0.9, where 1 is the maximum; inconclusive = response in the unintended direction; inactive = score below 0.9.

compound | outcome
CCOP(=S)(OCC)Oc1ccc2c(C)c(Cl)c(=O)oc2c1 | inactive
COC(=O)c1ccccc1S(=O)(=O)NC(=O)N(C)c1nc(C)nc(OC)n1 | inactive
S=C1NCCN1 | inactive
CCCCC(CC)COC(=O)c1ccccc1C(=O)OCC(CC)CCCC (centres undefined) | inactive
